- Target or test system: T1, angiotensin converting enzyme (ACE, EC 3.4.15.1, Sigma)
- T1 sequence (P12822 whole entry, species assumed, looked up): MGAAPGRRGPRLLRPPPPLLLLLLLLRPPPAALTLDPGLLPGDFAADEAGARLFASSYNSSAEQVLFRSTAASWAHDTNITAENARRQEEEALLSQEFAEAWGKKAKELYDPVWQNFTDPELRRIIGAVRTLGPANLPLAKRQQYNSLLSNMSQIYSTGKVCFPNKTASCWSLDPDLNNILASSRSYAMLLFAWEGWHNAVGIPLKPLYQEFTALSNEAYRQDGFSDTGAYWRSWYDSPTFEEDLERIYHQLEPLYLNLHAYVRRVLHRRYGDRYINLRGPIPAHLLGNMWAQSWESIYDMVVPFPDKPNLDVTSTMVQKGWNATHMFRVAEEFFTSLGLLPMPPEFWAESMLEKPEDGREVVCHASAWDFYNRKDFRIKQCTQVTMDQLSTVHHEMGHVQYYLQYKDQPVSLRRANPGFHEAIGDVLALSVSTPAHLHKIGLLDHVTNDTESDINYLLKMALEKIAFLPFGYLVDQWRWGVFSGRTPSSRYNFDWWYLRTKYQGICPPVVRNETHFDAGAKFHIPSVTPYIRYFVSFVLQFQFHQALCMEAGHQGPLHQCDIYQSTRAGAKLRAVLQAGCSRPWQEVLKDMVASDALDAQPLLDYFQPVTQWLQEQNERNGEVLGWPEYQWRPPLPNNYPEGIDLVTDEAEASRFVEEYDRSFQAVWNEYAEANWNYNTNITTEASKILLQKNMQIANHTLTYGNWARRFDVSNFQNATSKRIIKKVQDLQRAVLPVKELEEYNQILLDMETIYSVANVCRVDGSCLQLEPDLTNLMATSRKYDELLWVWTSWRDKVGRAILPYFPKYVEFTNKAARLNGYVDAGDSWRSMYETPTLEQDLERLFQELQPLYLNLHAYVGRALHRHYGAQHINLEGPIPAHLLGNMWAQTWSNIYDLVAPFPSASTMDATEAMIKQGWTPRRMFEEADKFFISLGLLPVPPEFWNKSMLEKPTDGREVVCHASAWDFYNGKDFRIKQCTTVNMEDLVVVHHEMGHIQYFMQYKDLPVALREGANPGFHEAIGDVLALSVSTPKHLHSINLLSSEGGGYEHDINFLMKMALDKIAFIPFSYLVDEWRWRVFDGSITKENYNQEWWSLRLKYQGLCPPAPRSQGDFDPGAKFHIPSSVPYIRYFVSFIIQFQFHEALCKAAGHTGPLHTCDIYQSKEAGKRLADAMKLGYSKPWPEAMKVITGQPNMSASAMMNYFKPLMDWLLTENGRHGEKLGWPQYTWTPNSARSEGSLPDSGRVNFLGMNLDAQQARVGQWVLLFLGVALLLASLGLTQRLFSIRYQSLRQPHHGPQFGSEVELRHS
- Assay procedure: cell-based or functional assay
Result type: ACEI activity, IC50

> print(dat)
                                     binder   reported
1  ESIINF [ESIINF, synthetic peptide, ovalbumin 256-261]  > 1000 µM
2  SALAM [SALAM (SEQ. ID. No 8), synthetic peptide, ovalbumin 36-40]     229 µM
3  RDILNQ [RDILNQ (SEQ. ID. No 7), synthetic peptide, ovalbumin 84-89]     436 µM
4  YRGGLEPINF [YRGGLEPINF, synthetic peptide, ovalbumin 125-134]  > 1000 µM
5  VLLPDEVSGL [VLLPDEVSGL, synthetic peptide, ovalbumin 243-252]  > 1000 µM
6  RADHPFL [RADHPFL (SEQ. ID. No 3), synthetic peptide, ovalbumin 359-365]     6.2 µM
7  YQIGL [YQIGL (SEQ. ID. No 1), synthetic peptide, ovalbumin 212-216]     174 µM
8  ELIN [ELIN, synthetic peptide, ovalbumin 144-147]  > 1000 µM
9  YAEERYPIL [YAEERYPIL (SEQ. ID. No 6), synthetic peptide, ovalbumin 106-114]     4.7 µM
